B1: Hairpin Ribozyme (parent)
chain: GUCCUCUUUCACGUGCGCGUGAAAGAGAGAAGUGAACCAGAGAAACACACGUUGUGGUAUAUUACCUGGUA

variants of: B1; test: self-cleavage, relative activity (ratio to wild type); higher = more cleavage; co-transcriptional
The threshold is inclusive: self-cleavage of exactly 0.2 counts as yes (1); values below receive no (0).

Some solved cases for reference:
{"mutation name": "A49G G57C", "group": "no (0)"}
{"mutation name": "C4A G13C", "group": "yes (1)"}
{"mutation name": "G25A U55A", "group": "no (0)"}
{"mutation name": "U14A U53G", "group": "yes (1)"}
{"mutation name": "G29C A39U", "group": "no (0)"}

Enquiry: self-cleavage >= 0.2 for U9A U33G ?
Return: no (0)

Enquiry: self-cleavage >= 0.2 for U52G U62A ?
Return: no (0)

Enquiry: self-cleavage >= 0.2 for C4U G69U ?
Return: no (0)

Enquiry: self-cleavage >= 0.2 for U14C C65U ?
Return: yes (1)

Enquiry: self-cleavage >= 0.2 for A11C U55C ?
Return: no (0)

Enquiry: self-cleavage >= 0.2 for G19U A41U ?
Return: yes (1)

Enquiry: self-cleavage >= 0.2 for C10A G34U ?
Return: yes (1)

Enquiry: self-cleavage >= 0.2 for U9G C48A ?
Return: no (0)

Enquiry: self-cleavage >= 0.2 for G1U A24G ?
Return: no (0)

Enquiry: self-cleavage >= 0.2 for G19A A61U ?
Return: no (0)

Enquiry: self-cleavage >= 0.2 for G34U U67C ?
Return: yes (1)

Enquiry: self-cleavage >= 0.2 for A22G G57U ?
Return: yes (1)

Enquiry: self-cleavage >= 0.2 for G32U U63C ?
Return: yes (1)

Enquiry: self-cleavage >= 0.2 for G25U G40U ?
Return: no (0)

Enquiry: self-cleavage >= 0.2 for A23U U60A ?
Return: yes (1)

Enquiry: self-cleavage >= 0.2 for U8G G19U ?
Return: yes (1)
